// fluorescence ratio lookup, one value per entry
test: Cy5 fluorescence interference with SSB-bound oligo, artefact control for HCV NS3 helicase inhibitor project, biochemical, NIH Clinical Collection, E. coli SSB (AID 743268)
Output spec: single numeric token, no unit.

Answered examples (4):
# compound, fluorescence ratio
records = [
    ("CC(=O)OCC(=O)[C@@]1(O)CC[C@H]2[C@@H]3C[C@H](C)C4=CC(=O)C=C[C@]4(C)[C@H]3[C@@H](O)C[C@@]21C", 0.98),
    ("COc1ccc(-c2oc3c(CC=C(C)C)c(O[C@@H]4O[C@H](CO)[C@@H](O)[C@H](O)[C@H]4O)cc(O)c3c(=O)c2O[C@@H]2O[C@@H](C)[C@H](O)[C@@H](O)[C@H]2O)cc1", 1),
    ("NC(=O)c1cccnc1", 1.01),
    ("CC1(C)S[C@@H]2[C@H](NC(=O)[C@H](N)c3ccc(O)cc3)C(=O)N2[C@H]1C(=O)O", 1.01),
]

Note fluorescence ratio for the compound shown: C[N+]1(C)CCCC(OC(=O)C(O)(c2ccccc2)c2ccccc2)C1 (stereo not given)
1.02

---

assay: LFS_MB_P medulloblastoma growth inhibition, cell-based, chromothripsis tumors, cisplatin or BGB combos (AID 1671449); conditions: LFS_MB_P medulloblastoma cells, at 0.5 µM, active compounds read high;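 also: cells exposed for 96 hours; 0% = vehicle DMSO and 100% = killing by high DMSO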
The source made the active and inactive calls. No stated cut-off is given here; in the data, active means inhibition above about 80%; inactive means the rest.
attribute-measured: inhibition

Answered examples (5):
# molecule, attribute-measured, test-value
measured = [
    ("CN(N=O)C(=O)NC1C(O)OC(CO)C(O)C1O (stereo unspecified)", "inhibition", "-5.09% (inactive)"),
    ("O=c1[nH]c(=O)n([C@H]2C[C@H](O)[C@@H](CO)O2)cc1Br", "inhibition", "27% (inactive)"),
    ("CCOC(=O)Nc1ccc(NCc2ccc(F)cc2)nc1N", "inhibition", "-13% (inactive)"),
    ("O=C(CCCCCCC(=O)Nc1ccccc1)NO", "inhibition", "76.8% (inactive)"),
    ("CCn1nc(C(=O)O)c(=O)c2cc3c(cc21)OCO3", "inhibition", "-4.36% (inactive)"),
]

Note inhibition for the molecule shown: N=c1ccn2c(n1)O[C@H]1[C@H](O)[C@@H](CO)O[C@H]12
-28.5% (inactive)

---

// z-score lookup, one value per entry
experiment: survival rescue of mitochondrial mutant cells in low glucose, primary screen, MELAS cybrids, Rieske KO mouse fibroblasts, CellTiter-Glo (AID 1508586); settings: MELAS cybrid survival, CellTiter-Glo 48 h, active compounds read high;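 also: z relative to plate mean and SD of compound and empty wells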
Where a SMILES comes first, the peptide text is derived from it. [ ]: non-standard residue; d: D form. The star is where a group is joined. Sta = CC(C)C[C@H](N)[C@@H](O)CC(=O)O; Isovaleryl = CC(C)CC(=O)*
Output spec: single numeric token, no unit.

# molecule, test-value
measured = [
    ("COc1cc(O)c2c(c1)C(=O)c1cc(C)cc(O)c1C2=O", -0.364),
    ("FC(F)c1nc2ccccc2n1-c1nc(N2CCOCC2)nc(N2CCOCC2)n1", 2.99),
    ("C[C@@H]1[C@H](O)[C@@H](C)/C=C/C=C/C=C/C=C/C=C/C=C/C=C/[C@H](O[C@@H]2O[C@H](C)[C@@H](O)[C@H](N)[C@@H]2O)C[C@@H]2O[C@](O)(C[C@@H](O)C[C@@H](O)[C@H](O)CC[C@@H](O)C[C@@H](O)CC(=O)O[C@H]1C)C[C@H](O)[C@H]2C(=O)O", -0.838),
]

Note z-score for the molecule shown: COc1ccc(O)cc1
-0.189

Note z-score for the molecule shown: CCCCC(O)c1ccccc1 (stereo not given)
0.247

Note z-score for the molecule shown: CC(=O)[C@H]1CC[C@H]2[C@@H]3C=CC4=CC(=O)CC[C@@]4(C)[C@@H]3CC[C@]12C
0.367

Note z-score for the molecule shown: C1CCc2nnnn2CC1
-0.00315

Note z-score for the molecule shown: CC1=C(/C=C/C(C)=C/C=C/C(C)=C\C(=O)O)C(C)(C)CCC1
-0.17

Note z-score for the molecule shown: CN(C)CCn1nnnc1SCC1=C(C(=O)O)N2C(=O)[C@@H](NC(=O)Cc3csc(N)n3)[C@H]2SC1
-0.0188

Note z-score for the molecule shown: CCc1cc(Cl)c(OC)c(C(=O)NC[C@@H]2CCCN2CC)c1O
0.117

Note z-score for the molecule shown: O=C1c2ccccc2S(=O)(=O)N1CCCCN1CCN(c2ncccn2)CC1
-0.295

Note z-score for the molecule shown: NS(=O)(=O)c1cc(C(=O)O)cc(N2CCCC2)c1Oc1ccccc1
-0.17

Note z-score for the molecule shown: O=P(O)(O)OC(CO)CO
0.561

Note z-score for the molecule shown: CC(C)CC(=O)N[C@H](C(=O)N[C@H](C(=O)N[C@@H](CC(C)C)[C@@H](O)CC(=O)N[C@@H](C)C(=O)N[C@@H](CC(C)C)[C@@H](O)CC(=O)O)C(C)C)C(C)C (Isovaleryl-VV[Sta]A[Sta]-OH)
-1.11

Note z-score for the molecule shown: C=CCNC(N)=S
-0.239

Note z-score for the molecule shown: Clc1ccc(Cn2c(CN3CCCC3)nc3ccccc32)cc1
0.821

Note z-score for the molecule shown: O=S(=O)(O)NC1CCCCC1
-0.205

Note z-score for the molecule shown: CCOc1nc2cccc(C(=O)OC(C)OC(=O)OC3CCCCC3)c2n1Cc1ccc(-c2ccccc2-c2nn[nH]n2)cc1 (stereo not given)
0.432

---

assay: inhibition of endothelial tube formation, primary screen, imaging, VEGF stimulated, CD31 staining, tube area, NPC library (AID 1117340); details: VEGF-stimulated ADSC/ECFC co-culture, at 10 µM
Calls of active or inactive are those of the source.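 How the source made its calls: active means compound that reduces growth-factor-driven endothelial tube area in a mixed cell culture, no cutoff stated; inactive means the rest.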
Response enum: active, inactive

# molecule, label
records = [
    ("CC(C)(C)C(=O)OCOP(=O)(COCCn1cnc2c(N)ncnc21)OCOC(=O)C(C)(C)C", "active"),
    ("CCC(C)(Oc1ccc(C2(c3ccc(OC(C)(CC)C(=O)O)cc3)CCCCC2)cc1)C(=O)O (centres undefined)", "inactive"),
]

Called result for CN(C)CCN1C(=O)c2ccccc2N(C)c2ccccc21
inactive

Called result for CC(C)=CCC/C(C)=C/CO
inactive

---

system: R275C/beta4; experiment: modulators of BK channel variants, profiling panel, selectivity assay, cell-based, U2OS BacMam, thallium flux, beta subunits (AID 1259406); details: at 30 µM;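 also: initial slope of Thallos dye fluorescence rise after thallium is added; log ratio against the mean of 0.3% DMSO vehicle wells on the same plate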
Records here are stratified by log fold change Tl+ flux; strata: lower level: < -0.004; middle level: ≥ -0.004 and < 0.01; upper level: ≥ 0.01

Look over these answered cases.
# molecule, label
data = [
    ("CCCC1O[C@@H]2C[C@H]3[C@@H]4CCC5=CC(=O)C=C[C@]5(C)[C@H]4[C@@H](O)C[C@]3(C)[C@]2(C(=O)CO)O1 (stereo partly specified)", "upper level"),
    ("CCN1CCN(C(=O)N[C@@H](C(=O)N[C@@H]2C(=O)N3[C@@H]2SC(C)(C)[C@@H]3C(=O)O)c2ccccc2)C(=O)C1=O", "upper level"),
    ("CC1(C)S[C@@H]2[C@H](NC(=O)[C@H](N)c3ccc(O)cc3)C(=O)N2[C@H]1C(=O)O", "upper level"),
]

# classify by log fold change Tl+ flux band: COc1ccc2cc([C@H](C)C(=O)O)ccc2c1
lower level

# classify by log fold change Tl+ flux band: O=[N+]([O-])c1cccc2cn[nH]c12
upper level

# classify by log fold change Tl+ flux band: CC(C)OC(=O)C(C)(C)Oc1ccc(C(=O)c2ccc(Cl)cc2)cc1
middle level

# classify by log fold change Tl+ flux band: C[C@H]1COc2c(N3CCN(C)CC3)c(F)cc3c(=O)c(C(=O)O)cn1c23
lower level

# classify by log fold change Tl+ flux band: CC(CCc1ccccc1)NCC(O)c1ccc(O)c(C(N)=O)c1 (stereo unspecified)
upper level

# classify by log fold change Tl+ flux band: O=C(CCCN1CCC(O)(c2ccc(Cl)cc2)CC1)c1ccc(F)cc1
lower level

# classify by log fold change Tl+ flux band: CC(=O)OCC(=O)[C@@]1(O)CC[C@H]2[C@@H]3C[C@H](C)C4=CC(=O)C=C[C@]4(C)[C@H]3[C@@H](O)C[C@@]21C
upper level

# classify by log fold change Tl+ flux band: CC(=O)OCC(=O)[C@@]1(O)CC[C@H]2[C@@H]3CCC4=CC(=O)CC[C@]4(C)[C@H]3[C@@H](O)C[C@@]21C
lower level

# classify by log fold change Tl+ flux band: COC(=O)[C@H](c1ccccc1Cl)N1CCc2sccc2C1
lower level

---

tested on: Hepatitis C virus NS3 helicase; test: HCV NS3 helicase inhibitors, primary screen, biochemical, fluorescence polarization, LOPAC1280 library (AID 687035); settings: Purified HCV NS3 helicase, Cy5-dT15 ssDNA binding fluorescence polarization; active compounds read high; concentration not given here
// inhibition lookup, one value per entry
All answers are understood in %, so give the number only.

# compound, assayed-target, inhibition [%]
measured = [
    ("CC(C)(C)C(=O)Oc1ccc(S(=O)(=O)Nc2ccccc2C(=O)NCC(=O)O)cc1", "Hepatitis C virus NS3 helicase", -5),
]

Note inhibition for the compound shown: O=C(O)c1cc([N+](=O)[O-])ccc1NCCCc1ccccc1
-4

Note inhibition for the compound shown: CC(CCc1ccccc1)NCC(O)c1ccc(O)c(C(N)=O)c1 (stereo not given)
-4

Note inhibition for the compound shown: Cc1ccc(N(CC2=NCCN2)c2cccc(O)c2)cc1
-6

Note inhibition for the compound shown: COc1cc(NS(C)(=O)=O)ccc1Nc1c2ccccc2nc2ccccc12
-8
